Conditions: Ebola virus entry assay, blue channel fluorescence
Active and inactive are the calls of the source. The rule behind the calls is not given here.
The reply should name one outcome from active, inactive

INPUT: Record lookup: outcome of this test for Oc1cccc(-c2c3nc(c(-c4cccc(O)c4)c4ccc([nH]4)c(-c4cccc(O)c4)c4nc(c(-c5cccc(O)c5)c5ccc2[nH]5)CC4)C=C3)c1 ?
OUTPUT: active

INPUT: Dear all, I need the recorded test outcome for CCOP(=S)(OCC)O/N=C(\C#N)c1ccccc1 , thank you.
OUTPUT: inactive

INPUT: Could you kindly confirm the outcome this assay logged for CN(C(=O)CCCOc1ccc2[nH]c(=O)ccc2c1)C1CCCCC1 ?
OUTPUT: inactive

INPUT: What call does the record list for CN(C)CCCOC1(Cc2ccccc2)CCCCCC1 ?
OUTPUT: active

INPUT: Would you mind telling me which call this test gave CC[C@H]1CN2CCc3cc(OC)c(OC)cc3[C@@H]2C[C@@H]1C[C@H]1NCCc2cc(OC)c(OC)cc21 ?
OUTPUT: active
